- procedure_text: Plasma, brain and liver levels of epothilone D after bolus IV in triple transgenic mice
- Assay type: in vivo, mouse
- setup_conditions: triple transgenic (Oddo et al. 2003), mouse, brain, 5 mg/kg, bolus IV 5 mpk, 0.17 hr, read-out: Brain conc
reported_property: concentration at 0.17 h (nM)

{"columns": ["compound", "reported_property", "unit_annotation", "readout_number"],
 "data": [
  ["C/C1=C/C[C@@H](/C(C)=C/c2csc(C)n2)OC(=O)C[C@H](O)C(C)(C)C(=O)[C@H](C)[C@@H](O)[C@@H](C)CCC1 [Epothilone D, epothilone D]", "concentration at 0.17 h", "nM", 595]
]}
